Tgt: G protein-activated inward rectifier potassium channel 2 (Homo sapiens) + G protein-activated inward rectifier potassium channel 1 (Homo sapiens) (UniProt P48051+P48549)
Sequence (P48051 whole entry, looked up): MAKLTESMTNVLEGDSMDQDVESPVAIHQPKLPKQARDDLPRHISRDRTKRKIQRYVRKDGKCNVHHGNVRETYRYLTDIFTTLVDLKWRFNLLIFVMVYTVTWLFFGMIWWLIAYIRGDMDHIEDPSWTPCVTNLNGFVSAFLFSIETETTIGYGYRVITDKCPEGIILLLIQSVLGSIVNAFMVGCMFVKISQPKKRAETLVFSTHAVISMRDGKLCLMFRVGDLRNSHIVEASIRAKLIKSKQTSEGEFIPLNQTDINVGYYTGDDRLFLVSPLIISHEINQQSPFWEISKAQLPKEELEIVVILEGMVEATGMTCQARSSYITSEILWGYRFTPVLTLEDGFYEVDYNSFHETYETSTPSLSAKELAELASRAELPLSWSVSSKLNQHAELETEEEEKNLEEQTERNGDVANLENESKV
Sequence (P48549 whole entry, looked up): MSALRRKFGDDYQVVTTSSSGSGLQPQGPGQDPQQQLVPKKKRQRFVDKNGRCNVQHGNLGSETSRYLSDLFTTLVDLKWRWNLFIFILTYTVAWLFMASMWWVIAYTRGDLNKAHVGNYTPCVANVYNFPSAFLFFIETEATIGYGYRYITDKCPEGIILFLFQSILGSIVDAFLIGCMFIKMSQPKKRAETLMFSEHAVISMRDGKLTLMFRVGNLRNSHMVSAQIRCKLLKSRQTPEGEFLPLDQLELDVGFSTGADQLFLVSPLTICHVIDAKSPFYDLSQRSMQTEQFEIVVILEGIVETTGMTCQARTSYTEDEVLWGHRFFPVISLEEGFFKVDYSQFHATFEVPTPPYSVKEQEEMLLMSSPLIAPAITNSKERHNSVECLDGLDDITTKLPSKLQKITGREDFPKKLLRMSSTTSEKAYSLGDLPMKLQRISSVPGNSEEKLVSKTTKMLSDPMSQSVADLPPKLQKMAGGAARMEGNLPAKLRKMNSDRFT
Test: GIRK1/2 thallium flux modulators, retest, confirmation, cell-based, HEK293 rmGlu8/hGIRK1/2, FluoZin-2 (AID 623911)
Protocol conditions: HEK293 rmGlu8/hGIRK1/2, thallium flux FluoZin-2; actives lie on both sides; glutamate co-added at its EC20 level
The whole screen tested about 2,100 compounds, of which about 770 (37%) were called active. The list shows a part of the results.
# note: boundary value 0 maps to no (0); manual score below it maps to yes (1)

Here's what some known entries look like.
COc1ccc(-c2nnc(CSc3nc4ccccc4c(=O)n3C)o2)cc1OC | yes (1)
CCn1c(=S)[nH]c2nc3c(cc2c1=O)CCCC3 | no (0)
O=C(NC(=S)N1CCN(c2ccc([N+](=O)[O-])cc2)CC1)c1ccc(F)cc1 | no (0)
COC(=O)c1ccc(-n2c(C)cc(C(=O)CSc3ccc(NC(C)=O)cc3)c2C)cc1 | no (0)
COCCNC(=O)CN1C(=O)CSc2ncccc21 | no (0)

API: query returns whether the molecule falls strictly under 0 in manual score. Query: C#CC(CO)N(CCN(Cc1ccccc1)C(C#C)CO)Cc1ccccc1 (stereo unspecified)
yes (1)

Try this molecule too: "C/C(=N\NC(=O)c1ccccc1O)c1ccc(Br)s1"
no (0)

Another molecule to check: "CCCCn1c(SCC(=O)/C(C#N)=C(\C)N)nc2ccccc2c1=O"
no (0)

Now give it for "O=C(CSc1nc(CCC2CCCC2)nc2ccccc12)NCc1ccc2c(c1)OCO2" too.
no (0)

Check "O=C(NC(=S)Nc1ccccn1)c1cc(-c2ccccc2)nc2ccccc12" too.
no (0)

Entry to check: "Cc1cccc(NC(=S)NC(=O)c2cccs2)n1"
no (0)
